Measured OD450, listed per entry.
# testedSystem: T1, human MSLN-R3-his protein (human, UniProt Q13421 487-598)
# T1 construct: Region 3 of human mesothelin, made in HEK293E cells, His-tagged; also called human MSLN-R3 protein; hMSLN-R3-his; not shown: His tag
# T1 sequence (Q13421 495-606): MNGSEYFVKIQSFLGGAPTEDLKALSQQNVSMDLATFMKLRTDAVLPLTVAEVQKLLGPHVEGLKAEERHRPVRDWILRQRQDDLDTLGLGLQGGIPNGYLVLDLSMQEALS
# assayNotes: ELISA on coated MSLN-R3; antibody 10 nM
Return type: number; implicit unit OD450.

Examples with answers:
{"columns": ["binder", "unitsText", "OD450"],
 "data": [
  ["S009-F8-19.21 (antibody, human IgG1, kappa, V domains shown) VH: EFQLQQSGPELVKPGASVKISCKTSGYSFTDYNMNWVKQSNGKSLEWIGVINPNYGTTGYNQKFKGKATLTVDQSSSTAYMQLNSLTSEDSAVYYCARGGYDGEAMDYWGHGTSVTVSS VL: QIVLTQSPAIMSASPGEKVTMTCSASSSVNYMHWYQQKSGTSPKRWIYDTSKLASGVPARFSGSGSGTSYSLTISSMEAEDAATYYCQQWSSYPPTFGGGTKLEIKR", "OD450", 0.05],
  ["S009-F8-12.13 (antibody, human IgG1, kappa, V domains shown) VH: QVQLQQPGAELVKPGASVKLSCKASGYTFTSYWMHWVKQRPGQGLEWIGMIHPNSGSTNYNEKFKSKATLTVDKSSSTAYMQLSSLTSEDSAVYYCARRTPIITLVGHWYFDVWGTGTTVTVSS VL: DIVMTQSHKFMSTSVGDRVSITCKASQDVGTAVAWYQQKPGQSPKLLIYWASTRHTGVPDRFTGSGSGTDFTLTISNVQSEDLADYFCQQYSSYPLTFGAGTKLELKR", "OD450", 0.1],
  ["S009-F8-32.3 (antibody, human IgG1, kappa, V domains shown) VH: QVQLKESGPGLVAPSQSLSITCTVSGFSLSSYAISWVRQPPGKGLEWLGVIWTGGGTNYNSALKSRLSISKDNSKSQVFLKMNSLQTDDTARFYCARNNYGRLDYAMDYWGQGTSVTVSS VL: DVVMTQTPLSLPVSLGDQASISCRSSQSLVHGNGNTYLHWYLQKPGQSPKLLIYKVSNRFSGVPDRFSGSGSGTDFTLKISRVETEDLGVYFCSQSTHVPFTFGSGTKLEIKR", "OD450", 0.04],
  ["S009-F8-15.19 (antibody, human IgG1, kappa, V domains shown) VH: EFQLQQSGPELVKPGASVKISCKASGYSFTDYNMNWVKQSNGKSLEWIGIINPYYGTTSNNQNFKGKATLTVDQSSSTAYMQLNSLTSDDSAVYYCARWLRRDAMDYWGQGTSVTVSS VL: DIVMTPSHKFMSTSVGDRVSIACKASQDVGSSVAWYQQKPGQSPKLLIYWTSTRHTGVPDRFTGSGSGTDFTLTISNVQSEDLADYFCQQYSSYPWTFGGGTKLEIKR", "OD450", 0.05]
]}

Exercise: Answer with the recorded OD450 for the binder listed here: S009-F8-27.1 (antibody, human IgG1, kappa, V domains shown) VH: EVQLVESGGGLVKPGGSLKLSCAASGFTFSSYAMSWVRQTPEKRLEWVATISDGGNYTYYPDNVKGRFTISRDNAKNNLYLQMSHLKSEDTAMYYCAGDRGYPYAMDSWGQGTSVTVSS VL: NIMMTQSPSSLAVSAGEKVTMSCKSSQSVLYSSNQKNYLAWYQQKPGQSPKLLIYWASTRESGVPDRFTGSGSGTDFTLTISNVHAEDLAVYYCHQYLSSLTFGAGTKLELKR
Key: 0.05

Exercise: Answer with the recorded OD450 for the binder listed here: S009-F8-4.5 (antibody, human IgG1, kappa, V domains shown) VH: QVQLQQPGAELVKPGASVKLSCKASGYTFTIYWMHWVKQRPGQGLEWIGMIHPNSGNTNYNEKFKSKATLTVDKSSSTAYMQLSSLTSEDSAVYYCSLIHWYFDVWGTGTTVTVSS VL: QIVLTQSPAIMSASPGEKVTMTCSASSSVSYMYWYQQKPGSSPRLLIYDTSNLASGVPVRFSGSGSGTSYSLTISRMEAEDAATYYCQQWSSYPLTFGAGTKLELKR
Key: 0.07
